- Tested on: NCI-H460
- test-name: NCI tumour cell line growth inhibition, 48 h
The source made the active and inactive calls. No stated cut-off is given here; in the data, active = GI50 up to about 1.1 µM and inactive = higher.

| molecule | GI50 |
| --- | --- |
| CCC(C)(C)C1CCC2c3c([nH]c4ccccc34)C3C(=O)N(c4ccc(OC)cc4)C(=O)C3C2C1 (stereo not given) | 7.4 µM (inactive) |
| O=C1C=CC(=O)c2c1ccc1c3ccccc3n(Cc3ccc([N+](=O)[O-])cc3)c21 | > 100 µM (inactive) |
| O=C(O)/C=C/C(=O)Nc1cccc2c1-c1ccccc1C2=O | 3.67 µM (inactive) |
| O=C1CC[C@@H](S(=O)(=O)c2ccccc2)[C@@H](/C=C/c2ccccc2)O1 | > 100 µM (inactive) |
| Cc1cccc2ns[s+]c12 | 23 µM (inactive) |

----------
// reported GI50 for each item listed
- Tested on: HL-60
- test-name: NCI tumour cell line growth inhibition, 48 h
Calls of active or inactive are those of the source. Cut-off read from the data, not from the text of the source: active = GI50 up to about 1.1 µM and inactive = higher.

| molecule | GI50 |
| --- | --- |
| CCCCS(=N)(=O)CC[C@H](N)C(=O)O (some centres undefined) | 665 µM (inactive) |
| O=C(O)CCC(NC(=O)c1ccc(Nc2nc3ccccc3nc2C(=O)O)cc1)C(=O)O (centres undefined) | > 100 µM (inactive) |
| O=C1c2cc([N+](=O)[O-])ccc2-c2ccc3c4ccc5c6c(ccc(c7ccc1c2c73)c64)C(=O)c1cc([N+](=O)[O-])ccc1-5 | > 100 µM (inactive) |
| c1ccc2cc(OCC3CO3)c(OCC3CO3)cc2c1 (centres undefined) | 1.53 µM (inactive) |
| O=c1oc2nc(-c3ccccc3)cc(C(F)(F)F)c2n1Cc1ccccc1 | 2.15 µM (inactive) |
| CN(C(=O)C12C3C4C5C3C1(C(=O)C13C6C7C8C6C1C8C73)C5C42)C(C)(C)C (centres undefined) | > 19.3 µM (inactive) |
| Cn1c2ccccc2c2c(=S)c3ccccc3ccc21 | > 100 µM (inactive) |
| CCOC(=O)C1=C(C)N2CCCOC2(C)C(C(=O)OC)C1c1cccc([N+](=O)[O-])c1 (centres undefined) | 32.1 µM (inactive) |
| CC(=O)Oc1ccc2cc(Oc3ccccc3)c(=O)oc2c1 | > 100 µM (inactive) |

----------
- Test system: SNB-19
- test-name: NCI tumour cell line growth inhibition, 48 h
Activity calls are given as the source filed them. Cut-off read from the data, not from the text of the source: active = GI50 up to about 1.1 µM and inactive = higher.

| molecule | GI50 |
| --- | --- |
| CCOc1ncn(-c2ccc(NC(=S)NC34CC5CC(CC(C5)C3)C4)cc2)n1 | 46.1 µM (inactive) |
| CC1=C2C(=O)[C@H]3[C@@H](CC=C4C[C@@H](O)CC[C@@]43C)[C@@H]2CC[C@]12O[C@@H]1C[C@H](C)CN[C@H]1[C@H]2C | > 41.7 µM (inactive) |
| COc1cc2cc(C(=O)N3CC(CCl)c4c3cc([N+](=O)[O-])c3ccccc43)[nH]c2c(OC)c1OC (centres undefined) | 87.7 µM (inactive) |
| CCCCCOCC(O)CO (centres undefined) | > 100 µM (inactive) |
| COc1cc(OC)c2c(O)c3c(cc2c1)CC(C)(C)CC3=O | > 100 µM (inactive) |
| CCOP(=O)(OCC)/C(C#N)=C/c1cccn1C(C)C | > 100 µM (inactive) |
| CC(=O)OCC1OC(n2c(Br)nc3c2c(=O)n(C)c(=O)n3C)C(OC(C)=O)C1OC(C)=O (centres undefined) | 74.8 µM (inactive) |
| COc1ccc(CC2OC3(CCCCC3)CC3CCCCN32)cc1 (centres undefined) | > 100 µM (inactive) |
| O=C1c2cccc3cc([N+](=O)[O-])cc(c23)C(=O)N1c1ccc(OCCN2CCCC2)cc1 | 26.1 µM (inactive) |
